Biological target: wt human LRRK2, catalytic site (Homo sapiens, UniProt Q5S007)
Construct: wt human LRRK2, catalytic site, catalytic site (ThermoFisher/USA)
Sequence (Q5S007 1879-2138 limits assumed): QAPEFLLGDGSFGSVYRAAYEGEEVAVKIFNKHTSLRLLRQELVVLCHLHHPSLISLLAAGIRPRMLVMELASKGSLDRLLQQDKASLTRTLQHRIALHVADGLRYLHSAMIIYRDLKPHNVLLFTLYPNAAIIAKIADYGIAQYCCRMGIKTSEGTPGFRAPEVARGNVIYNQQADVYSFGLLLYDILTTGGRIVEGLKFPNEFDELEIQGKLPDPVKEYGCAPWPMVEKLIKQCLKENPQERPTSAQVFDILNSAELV
Assay: TR-FRET LanthaScreen Tb Kinase Activity Assay, LRRK2 inhibition
Settings: 2 nM wt human LRRK2, 400 nM peptide, 38 μM ATP
pIC50: −log10 of the molar value.

[
  {
    "smilesRepr": "Cc1n[nH]c2c1N=C(c1c(F)cccc1F)Nc1cnc(N3CCOC4(COC4)C3)cc1-2",
    "pIC50": "> 9.00"
  },
  {
    "smilesRepr": "Fc1cccc(F)c1C1=Nc2c(Cl)n[nH]c2-c2cc(-c3ccn(CC(F)F)n3)ncc2N1",
    "pIC50": "> 9.00"
  },
  {
    "smilesRepr": "Cc1n[nH]c2c1N=C(c1c(F)cccc1F)Nc1cnc(N3CC[C@@H](C#N)C3)cc1-2",
    "pIC50": "7.00 to 9.00"
  },
  {
    "smilesRepr": "Cc1n[nH]c2c1N=C(c1c(F)cccc1F)Nc1c-2cc(N2CCO[C@H]([C@@H](C)O)C2)nc1C",
    "pIC50": "7.00 to 9.00"
  },
  {
    "smilesRepr": "Cc1n[nH]c2c1N=C(c1c(F)cccc1F)Nc1c-2cc(N2CCO[C@@H](CO)C2)nc1C",
    "pIC50": "> 9.00"
  },
  {
    "smilesRepr": "Cc1n[nH]c2c1N=C(c1c(F)cccc1F)Nc1cnc(N3CCS(=O)(=O)CC3)cc1-2",
    "pIC50": "> 9.00"
  },
  {
    "smilesRepr": "COC[C@@H]1CN(c2cc3c(cn2)NC(c2c(F)cccc2F)=Nc2c(C)n[nH]c2-3)CCO1",
    "pIC50": "7.00 to 9.00"
  },
  {
    "smilesRepr": "Cc1n[nH]c2c1N=C(c1c(F)cccc1F)Nc1cnc(N3C[C@@H]4C[C@H]3CO4)cc1-2",
    "pIC50": "7.00 to 9.00"
  }
]

* * *

Molecular target: wt human LRRK2, catalytic site (Homo sapiens)
Construct: wt human LRRK2, catalytic site, catalytic site (ThermoFisher/USA)
Assay: TR-FRET LanthaScreen Tb Kinase Activity Assay, LRRK2 inhibition
Details: 2 nM wt human LRRK2, 400 nM peptide, 38 μM ATP
Protocol: The compounds disclosed herein were tested for their inhibitory effect on LRRK2 kinase according to the following procedures. The protocol for basic TR-FRET LanthaScreen Tb Kinase Activity Assay inhibitor studies were as follows. […] Then, after 60 min minutes incubation at room temperature plates were read in Envision. […]
pIC50: −log10 of the molar value.
In this section we review reported pIC50 values for a set of compounds.

[
  {
    "compound": "Cc1n[nH]c2c1N=C(c1c(F)cccc1F)Nc1cnc(-c3cn[nH]c3)cc1-2 [Example 29]",
    "experimentalTarget": "wt human LRRK2, catalytic site (Homo sapiens)",
    "pIC50": "> 9.00"
  },
  {
    "compound": "Cc1n[nH]c2c1N=C(c1c(F)cccc1F)Nc1cnc(N3CCN(C)CC3)cc1-2 [Example 8]",
    "experimentalTarget": "wt human LRRK2, catalytic site (Homo sapiens)",
    "pIC50": "> 9.00"
  },
  {
    "compound": "Cc1n[nH]c2c1N=C(c1c(F)cccc1F)Nc1cnc(N3CCC[C@@H](C#N)C3)cc1-2 [Example 18]",
    "experimentalTarget": "wt human LRRK2, catalytic site (Homo sapiens)",
    "pIC50": "> 9.00"
  },
  {
    "compound": "Cc1n[nH]c2c1N=C(c1c(F)cccc1F)Nc1ccc(N3CCO[C@H](C(C)(C)O)C3)cc1-2 (single isomer, unassigned) [Example 36]",
    "experimentalTarget": "wt human LRRK2, catalytic site (Homo sapiens)",
    "pIC50": "7.00 to 9.00"
  },
  {
    "compound": "Fc1cccc(F)c1C1=Nc2cn[nH]c2-c2cc(N3CC[C@@H](C(F)F)C3)ncc2N1 (single isomer, unassigned) [Example 34]",
    "experimentalTarget": "wt human LRRK2, catalytic site (Homo sapiens)",
    "pIC50": "> 9.00"
  },
  {
    "compound": "Cc1n[nH]c2c1N=C(c1c(F)cccc1F)Nc1cnc(N3CCC4(CC3)COC4)cc1-2 [Example 42]",
    "experimentalTarget": "wt human LRRK2, catalytic site (Homo sapiens)",
    "pIC50": "7.00 to 9.00"
  },
  {
    "compound": "Cc1n[nH]c2c1N=C(c1c(F)cccc1F)Nc1c-2cc(N2CCC(C)(O)CC2)nc1C [Example 41]",
    "experimentalTarget": "wt human LRRK2, catalytic site (Homo sapiens)",
    "pIC50": "7.00 to 9.00"
  },
  {
    "compound": "Cc1n[nH]c2c1N=C(c1c(F)cccc1F)Nc1cnc(N3CCC[C@H](C#N)C3)cc1-2 [Example 19]",
    "experimentalTarget": "wt human LRRK2, catalytic site (Homo sapiens)",
    "pIC50": "7.00 to 9.00"
  },
  {
    "compound": "COC1(C#Cc2cc3c(cn2)NC(c2c(F)cccc2F)=Nc2c(C)n[nH]c2-3)CCOCC1 [Example 31]",
    "experimentalTarget": "wt human LRRK2, catalytic site (Homo sapiens)",
    "pIC50": "> 9.00"
  },
  {
    "compound": "Cc1cc(F)c(C2=Nc3cn[nH]c3-c3cc(N4CCOCC4)ncc3N2)c(F)c1 [Example 51]",
    "experimentalTarget": "wt human LRRK2, catalytic site (Homo sapiens)",
    "pIC50": "7.00 to 9.00"
  },
  {
    "compound": "Cc1n[nH]c2c1N=C(c1c(F)cccc1F)Nc1cnc(N3CCC[C@@](C)(C#N)C3)cc1-2 (single isomer, unassigned) [Example 12]",
    "experimentalTarget": "wt human LRRK2, catalytic site (Homo sapiens)",
    "pIC50": "> 9.00"
  },
  {
    "compound": "CCS(=O)(=O)N1CCN(c2cc3c(cn2)NC(c2c(F)cccc2F)=Nc2c(C)n[nH]c2-3)CC1 [Example 11]",
    "experimentalTarget": "wt human LRRK2, catalytic site (Homo sapiens)",
    "pIC50": "> 9.00"
  },
  {
    "compound": "Cc1n[nH]c2c1N=C(c1c(F)cccc1F)Nc1cnc(N3CCC(C#N)CC3)cc1-2 [Example 48]",
    "experimentalTarget": "wt human LRRK2, catalytic site (Homo sapiens)",
    "pIC50": "7.00 to 9.00"
  }
]
